Listing of recorded Kd by entry.
# systemTested: T1, hGITR-hIgG (human, UniProt Q9Y5U5 26-161, limits assumed)
# T1 construct: not shown: human IgG part of the fusion
# T1 sequence: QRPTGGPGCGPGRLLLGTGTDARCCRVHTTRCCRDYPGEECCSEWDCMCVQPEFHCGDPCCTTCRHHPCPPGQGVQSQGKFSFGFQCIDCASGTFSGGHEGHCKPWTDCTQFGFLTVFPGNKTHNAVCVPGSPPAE
# test: BIAcore SPR; hGITR-hIgG capture antigen, mAb analyte; apparent Kd
Express your answer in pM, writing the number without its unit.

{"binder": "61G6 (antibody, V domains shown, Parental rodent anti-human GITR monoclonal antibody from a hybridoma; kappa VL; also called 61G6.B6; hybridoma PTA-9891) VH: DVQLQESGPGLVKPSQSLSLTCTVTGYSITSDYAWNWIRQFPGNKLEWMGYISYSGSTRYNPSLKSRISITRDTSKNQFFLQLNSVTSEDTATYYCARQLGLRFFDYWGQGTTLTVSS VL: QIVLTQSPALMSASPGEKVTMTCSANSTVNYMYWYQQKPRSSPKPCIYLTSNLASGVPARFSGSGSGTSYSLTISSMEAEDAATYYCQQWNSNPPTFGAGTKLELRR", "scaleUnit": "pM", "Kd": 15600}
{"binder": "35D8 (antibody, V domains shown, Parental rodent anti-human GITR monoclonal antibody from a hybridoma; kappa VL; also called 35D8.B10) VH: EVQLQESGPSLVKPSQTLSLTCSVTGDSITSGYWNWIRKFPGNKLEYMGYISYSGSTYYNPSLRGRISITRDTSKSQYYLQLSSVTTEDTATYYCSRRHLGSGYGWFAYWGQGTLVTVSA VL: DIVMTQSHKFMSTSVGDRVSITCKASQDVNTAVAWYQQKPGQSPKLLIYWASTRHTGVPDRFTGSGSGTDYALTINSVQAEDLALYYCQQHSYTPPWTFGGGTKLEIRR", "scaleUnit": "pM", "Kd": 250}

Challenge: I'd like to know its Kd. The binder in question is 9E5 (antibody, V domains shown, Parental rodent anti-human GITR monoclonal antibody from a hybridoma; kappa VL; also called 9E5.C1) VH: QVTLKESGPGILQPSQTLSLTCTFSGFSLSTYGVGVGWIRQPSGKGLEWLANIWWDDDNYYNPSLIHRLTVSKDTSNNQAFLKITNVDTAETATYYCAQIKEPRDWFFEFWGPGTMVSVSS VL: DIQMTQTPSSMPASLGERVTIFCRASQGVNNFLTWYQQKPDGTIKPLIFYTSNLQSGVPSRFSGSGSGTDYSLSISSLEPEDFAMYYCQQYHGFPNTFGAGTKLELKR
Response given: 12
